Assay details: physchem
Measurement conditions: 25 °C, oil or lipid, solubility of the drug in vegetable oils
Property label: solubility

Task item: Quote solubility reported for CCC(C)n1ncn(-c2ccc(N3CCN(c4ccc(OCC5COC(Cn6cncn6)(c6ccc(Cl)cc6Cl)O5)cc4)CC3)cc2)c1=O (stereo not shown) please.
Reply: ≤ 400 µg/mL

====

Assay details: physchem
Measurement conditions: 25 °C, oil or lipid, Solubility (mg/ml) Vitamin E
Below, each entry is listed with its recorded solubility.

Task item: Report measured solubility; entry is `CC(C)[C@@H](C)/C=C/[C@@H](C)[C@H]1CC[C@H]2C3=CC=C4C[C@@H](O)CC[C@]4(C)[C@H]3CC[C@]12C`
Reply: 50 mg/mL

Task item: Give recorded solubility. `CC(C)CCC[C@@H](C)[C@H]1CC[C@H]2[C@@H]3CC=C4C[C@@H](O)CC[C@]4(C)[C@H]3CC[C@]12C`
Reply: 150 mg/mL

Task item: Identify the reported solubility for the following entry. CCC(C)n1ncn(-c2ccc(N3CCN(c4ccc(OCC5COC(Cn6cncn6)(c6ccc(Cl)cc6Cl)O5)cc4)CC3)cc2)c1=O (stereo not drawn)
Reply: 60 mg/mL

====

Assay details: physchem
Measurement conditions: 25 °C, organic solvent or mixture, thermodynamic from solid, solubility of itraconazole in chloroform
Property label: solubility at 18 h (mg/mL)
Express your answer in mg/mL, writing the number without its unit.

Task item: Tell me solubility at 18 h reported for CCC(C)n1ncn(-c2ccc(N3CCN(c4ccc(OCC5COC(Cn6cncn6)(c6ccc(Cl)cc6Cl)O5)cc4)CC3)cc2)c1=O (stereo not shown)
Reply: 350

====

Assay details: physchem
Measurement conditions: 25 °C, organic solvent or mixture, thermodynamic from solid, solubility of itraconazole in methanol
Property label: solubility at 18 h (µg/mL)
Please respond with the number in µg/mL and leave the unit unwritten.

Task item: Recall and state the measured solubility at 18 h for CCC(C)n1ncn(-c2ccc(N3CCN(c4ccc(OCC5COC(Cn6cncn6)(c6ccc(Cl)cc6Cl)O5)cc4)CC3)cc2)c1=O (stereo not shown) .
Reply: 700

====

Assay details: physchem
Measurement conditions: 25 °C, organic solvent or mixture, thermodynamic from solid, Solubility (mg/ml) Chloroform
Protocol: To measure the SVE of a drug, saturated solutions of the drug are prepared in methanol and chloroform. […] The drug solutions are assayed for drug content by an appropriate means, eg. high performance liquid chromatography, and the saturated solubility calculated. The SVE is calculated by dividing the solubility in chloroform by the solubility in methanol and expressed as weight in volume (w/v). […]
Consider the following compounds and their measured solubility readings.
Numbers only here, please. The scale is mg/mL.

For orientation, consider the following solved cases.
>>> data_value("CC(C)CCC[C@@H](C)[C@H]1CC[C@H]2[C@@H]3CC=C4C[C@@H](O)CC[C@]4(C)[C@H]3CC[C@]12C")
200
>>> data_value("CC(C)[C@@H](C)/C=C/[C@@H](C)[C@H]1CC[C@H]2C3=CC=C4C[C@@H](O)CC[C@]4(C)[C@H]3CC[C@]12C")
32

Now look at this one.
Task item: For CCC(C)n1ncn(-c2ccc(N3CCN(c4ccc(OCC5COC(Cn6cncn6)(c6ccc(Cl)cc6Cl)O5)cc4)CC3)cc2)c1=O (stereo not drawn) , write its solubility.
Reply: 500

====

Assay details: Saturated solubility of drugs in water, organic solvents, oils and Vitamin E
Measurement conditions: 25 °C, organic solvent or mixture, thermodynamic from solid, Solubility (mg/ml) Methanol, methanol; room temperature (25° C.)
Property label: solubility (mg/mL)
Hi! Could you send only the number? It should be in mg/mL, unit omitted.

Task item: Tell us which solubility value is on record for C[C@]12C=CC(=O)C=C1CC[C@@H]1[C@@H]2[C@@H](O)C[C@@]2(C)[C@H]1CC[C@]2(O)C(=O)CO [Prednisolone]
Reply: 33
